target-of-assay: Tyrosine-protein kinase Lyn (Homo sapiens)
Sequence (P07948 whole entry): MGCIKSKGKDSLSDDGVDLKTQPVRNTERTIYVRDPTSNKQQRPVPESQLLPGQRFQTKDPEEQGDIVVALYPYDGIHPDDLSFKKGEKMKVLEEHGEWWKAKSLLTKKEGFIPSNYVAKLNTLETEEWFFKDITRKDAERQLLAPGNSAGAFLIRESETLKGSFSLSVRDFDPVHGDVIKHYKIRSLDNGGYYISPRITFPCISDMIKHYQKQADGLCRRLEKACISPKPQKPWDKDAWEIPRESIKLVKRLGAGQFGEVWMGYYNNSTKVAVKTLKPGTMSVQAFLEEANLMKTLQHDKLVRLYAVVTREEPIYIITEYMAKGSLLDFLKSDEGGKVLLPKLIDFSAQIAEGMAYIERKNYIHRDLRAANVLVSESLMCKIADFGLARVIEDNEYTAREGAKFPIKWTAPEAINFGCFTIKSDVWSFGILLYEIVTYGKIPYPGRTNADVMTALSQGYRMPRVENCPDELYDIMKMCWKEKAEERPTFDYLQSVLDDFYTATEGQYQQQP
endpoint-name: IC50 (µM)
Your answer is read as µM, so omit the unit and give the number.

# input Param readout= IC50; system= Tyrosine-protein kinase Lyn (Homo sapiens); entry= O=C1NC(=O)c2ccc(I)cc2/C1=C/NCc1ccc(-c2ccoc2)c(O)c1 ; returns value.
# output 8.5

###

target-of-assay: Cyclin-dependent kinase 2 (Homo sapiens, UniProt P24941)
experiment-summary: Inhibition of CDK2/Cyclin E assessed as inhibition of retinoblastoma susceptibility gene product phosphorylation
pIC50: −log10 of the molar value.
endpoint-name: pIC50

compound=COc1ccc(CN/C=C2\C(=O)NC(=O)c3ccc(Br)cc32)cc1O target_of_assay="Cyclin-dependent kinase 2 (Homo sapiens, UniProt P24941)" assay_value="> 4.30"
compound="COc1ccc(C(C)N/C=C2\\C(=O)NC(=O)c3ccc(Br)cc32)cc1O (stereo not given)" target_of_assay="Cyclin-dependent kinase 2 (Homo sapiens, UniProt P24941)" assay_value="> 4.30"

# input What does the record list as pIC50 for O=C1NC(=O)c2ccc(I)cc2/C1=C/NCc1ccc(-c2ccccn2)c(O)c1 ?
# output < 4.30

# input What does the record list as pIC50 for COc1ccc(CN/C=C2\C(=O)NC(=O)c3ccc(-c4ccoc4)cc32)cc1O ?
# output 5.96

# input What does the record list as pIC50 for COc1cc(CN/C=C2\C(=O)NC(=O)c3ccc(Br)cc32)cc(O)c1OC ?
# output > 4.30
